These data points were gathered from patent US11767286B2.

protocolNotes: Distribution in brain: plasma and intracerebral concentrations after intravenous injection
Assay type: in vivo
studyConditions: both sexes, rat, plasma; rats, 4 mg/kg iv, 180 min; read-out: Mean Plasma Concentration
measurementType: concentration at 180 min (ng/mL)
Entry rule: numbers only, all in ng/mL.

>>> quantitativereadout("COc1cc(CCC(=O)O[C@H]2C[C@H]3CC[C@]2(C)C3(C)C)cc(OC)c1O")
92.2
>>> quantitativereadout("COc1cc(CCC(=O)O[C@H]2C[C@H]3CC[C@]2(C)C3(C)C)c(Br)cc1O")
120
>>> quantitativereadout("CC1(C)[C@@H]2CC[C@@]1(C)[C@@H](OC(=O)CCc1ccc(O)c(OC(F)(F)F)c1)C2")
84.6
>>> quantitativereadout("COc1cc(/C=C/C(=O)O[C@H]2C[C@H]3CC[C@]2(C)C3(C)C)ccc1O [D-bornyl ferulate, reference compound]")
47.1
>>> quantitativereadout("COc1cc(CCC(=O)O[C@H]2C[C@H]3CC[C@]2(C)C3(C)C)cc(F)c1O")
97.3

Challenge: Provide one value: measured concentration at 180 min of CC1(C)[C@@H]2CC[C@@]1(C)[C@@H](OC(=O)[C@H](O)Cc1ccc(O)c(O)c1)C2 [D-tanshinol borneol ester, reference compound]
Response given: 52.8

Challenge: Provide one value: measured concentration at 180 min of `COc1cc(CCC(=O)O[C@H]2C[C@H]3CC[C@]2(C)C3(C)C)cc(O)c1O`
Response given: 136

---

In this section, each of the compounds is paired with its reported Kp at 180 min.
protocolNotes: Distribution in brain: plasma and intracerebral concentrations after intravenous injection
Format: in vivo
studyConditions: both sexes, rat, brain/plasma; rats, 4 mg/kg iv, 180 min; read-out: Brain/Blood Concentration Ratio
Keep it simple and answer with nothing but the number.

>>> quantitativereadout("COc1cc(CCC(=O)O[C@H]2C[C@H]3CC[C@]2(C)C3(C)C)c(Br)cc1O [Compound D]")
4
>>> quantitativereadout("COc1cc(/C=C/C(=O)O[C@H]2C[C@H]3CC[C@]2(C)C3(C)C)ccc1O [D-bornyl ferulate, reference compound]")
5.8
>>> quantitativereadout("COc1cc(CCC(=O)O[C@H]2C[C@H]3CC[C@]2(C)C3(C)C)cc(F)c1O [Compound A]")
3.2
>>> quantitativereadout("CC1(C)[C@@H]2CC[C@@]1(C)[C@@H](OC(=O)CCc1ccc(O)c(OC(F)(F)F)c1)C2 [Compound E]")
3.7
>>> quantitativereadout("CC1(C)[C@@H]2CC[C@@]1(C)[C@@H](OC(=O)[C@H](O)Cc1ccc(O)c(O)c1)C2 [D-tanshinol borneol ester, reference compound]")
3.4
>>> quantitativereadout("COc1cc(CCC(=O)O[C@H]2C[C@H]3CC[C@]2(C)C3(C)C)cc(O)c1O [Compound B]")
1.8

Challenge: Provide one value: measured Kp at 180 min of COc1cc(CCC(=O)O[C@H]2C[C@H]3CC[C@]2(C)C3(C)C)cc(OC)c1O [Compound C]
Response given: 2

---

protocolNotes: Distribution in brain: plasma and intracerebral concentrations after intravenous injection
Format: in vivo
studyConditions: both sexes, rat, plasma; rats, 4 mg/kg iv, 60 min; read-out: Mean Plasma Concentration
measurementType: concentration at 60 min (ng/mL)
Entry rule: numbers only, all in ng/mL.

Solved entries:
>>> quantitativereadout("COc1cc(/C=C/C(=O)O[C@H]2C[C@H]3CC[C@]2(C)C3(C)C)ccc1O [D-bornyl ferulate, reference compound]")
138
>>> quantitativereadout("COc1cc(CCC(=O)O[C@H]2C[C@H]3CC[C@]2(C)C3(C)C)c(Br)cc1O")
312
>>> quantitativereadout("COc1cc(CCC(=O)O[C@H]2C[C@H]3CC[C@]2(C)C3(C)C)cc(O)c1O")
285
>>> quantitativereadout("CC1(C)[C@@H]2CC[C@@]1(C)[C@@H](OC(=O)CCc1ccc(O)c(OC(F)(F)F)c1)C2")
274
>>> quantitativereadout("COc1cc(CCC(=O)O[C@H]2C[C@H]3CC[C@]2(C)C3(C)C)cc(F)c1O")
252
>>> quantitativereadout("COc1cc(CCC(=O)O[C@H]2C[C@H]3CC[C@]2(C)C3(C)C)cc(OC)c1O")
160

Let us examine a further case.
Challenge: Provide one value: measured concentration at 60 min of CC1(C)[C@@H]2CC[C@@]1(C)[C@@H](OC(=O)[C@H](O)Cc1ccc(O)c(O)c1)C2 [D-tanshinol borneol ester, reference compound]
Response given: 244

---

In this section, each of the molecules is paired with its reported Blood viscosity, High Shear.
Test system: rats with acute cerebral ischemia-reperfusion
protocolNotes: Blood viscosity of rats with acute cerebral ischemia-reperfusion (blood viscometer)
Format: in vivo, SD rats
Set-up: unit not given here
studyConditions: 4 mg/kg iv 2 h after reperfusion; blood 4 h after administration; n=5
Keep it simple and answer with nothing but the number.

Solved entries:
>>> quantitativereadout("CC(=O)Oc1ccccc1C(=O)O [Aspirin, aspirin, reference compound]")
2.64
>>> quantitativereadout("COc1cc(CCC(=O)O[C@H]2C[C@H]3CC[C@]2(C)C3(C)C)cc(F)c1O")
2.56
>>> quantitativereadout("COc1cc(CCC(=O)O[C@H]2C[C@H]3CC[C@]2(C)C3(C)C)cc(OC)c1O")
2.70
>>> quantitativereadout("COc1cc(CCC(=O)O[C@H]2C[C@H]3CC[C@]2(C)C3(C)C)cc(O)c1O")
2.73
>>> quantitativereadout("CC1(C)[C@@H]2CC[C@@]1(C)[C@@H](OC(=O)CCc1ccc(O)c(OC(F)(F)F)c1)C2")
2.73

Challenge: Provide one value: measured Blood viscosity, High Shear of `COc1cc(CCC(=O)O[C@H]2C[C@H]3CC[C@]2(C)C3(C)C)c(Br)cc1O`
Response given: 2.63

Challenge: Provide one value: measured Blood viscosity, High Shear of CC1(C)[C@@H]2CC[C@@]1(C)[C@@H](OC(=O)[C@H](O)Cc1ccc(O)c(O)c1)C2 [D-tanshinol borneol ester, reference compound]
Response given: 2.76

Challenge: Provide one value: measured Blood viscosity, High Shear of COc1cc(/C=C/C(=O)O[C@H]2C[C@H]3CC[C@]2(C)C3(C)C)ccc1O [D-bornyl ferulate, reference compound]
Response given: 2.84

---

In this section, each of the molecules is paired with its reported inhibition at 4 mg/kg.
System: platelet aggregation induced with ADP
protocolNotes: Maximum platelet aggregation rate of rabbits, induced with ADP
Assay type: cell-based
studyConditions: Oryctolagus cuniculus, Platelet, rabbit plasma, 4 mg/kg as printed, n=3
Entry rule: numbers only, all in %.

>>> quantitativereadout("CC1(C)[C@@H]2CC[C@@]1(C)[C@@H](OC(=O)CCc1ccc(O)c(OC(F)(F)F)c1)C2")
46.2
>>> quantitativereadout("COc1cc(/C=C/C(=O)O[C@H]2C[C@H]3CC[C@]2(C)C3(C)C)ccc1O [D-bornyl ferulate, reference compound]")
46.5
>>> quantitativereadout("COc1cc(CCC(=O)O[C@H]2C[C@H]3CC[C@]2(C)C3(C)C)cc(OC)c1O")
56.5

Challenge: State inhibition at 4 mg/kg (platelet aggregation induced with ADP) of `COc1cc(CCC(=O)O[C@H]2C[C@H]3CC[C@]2(C)C3(C)C)cc(F)c1O` .
Response given: 52.3

---

In this section, each of the molecules is paired with its reported concentration at 10 min.
protocolNotes: Distribution in brain: plasma and intracerebral concentrations after intravenous injection
Type: in vivo
studyConditions: both sexes, rat, plasma; rats, 4 mg/kg iv, 10 min; read-out: Mean Plasma Concentration
Entry rule: numbers only, all in ng/mL.

Solved entries:
>>> quantitativereadout("CC1(C)[C@@H]2CC[C@@]1(C)[C@@H](OC(=O)[C@H](O)Cc1ccc(O)c(O)c1)C2 [D-tanshinol borneol ester, reference compound]")
2210
>>> quantitativereadout("CC1(C)[C@@H]2CC[C@@]1(C)[C@@H](OC(=O)CCc1ccc(O)c(OC(F)(F)F)c1)C2")
887
>>> quantitativereadout("COc1cc(CCC(=O)O[C@H]2C[C@H]3CC[C@]2(C)C3(C)C)cc(F)c1O")
1020

Let us examine a further case.
Challenge: Provide one value: measured concentration at 10 min of `COc1cc(CCC(=O)O[C@H]2C[C@H]3CC[C@]2(C)C3(C)C)cc(OC)c1O`
Response given: 906

---

In this section, each of the molecules is paired with its reported concentration at 10 min.
protocolNotes: Distribution in brain: plasma and intracerebral concentrations after intravenous injection
Assay type: in vivo
studyConditions: both sexes, rat, brain; rats, 4 mg/kg iv, 10 min; read-out: Mean Intracerebral Concentration
Entry rule: numbers only, all in ng/g.

Solved entries:
>>> quantitativereadout("COc1cc(CCC(=O)O[C@H]2C[C@H]3CC[C@]2(C)C3(C)C)cc(O)c1O")
2490
>>> quantitativereadout("CC1(C)[C@@H]2CC[C@@]1(C)[C@@H](OC(=O)CCc1ccc(O)c(OC(F)(F)F)c1)C2")
3020
>>> quantitativereadout("COc1cc(CCC(=O)O[C@H]2C[C@H]3CC[C@]2(C)C3(C)C)cc(OC)c1O")
2630
>>> quantitativereadout("COc1cc(CCC(=O)O[C@H]2C[C@H]3CC[C@]2(C)C3(C)C)cc(F)c1O")
2640
>>> quantitativereadout("COc1cc(/C=C/C(=O)O[C@H]2C[C@H]3CC[C@]2(C)C3(C)C)ccc1O [D-bornyl ferulate, reference compound]")
1490
>>> quantitativereadout("COc1cc(CCC(=O)O[C@H]2C[C@H]3CC[C@]2(C)C3(C)C)c(Br)cc1O")
2260

Let us examine a further case.
Challenge: Provide one value: measured concentration at 10 min of CC1(C)[C@@H]2CC[C@@]1(C)[C@@H](OC(=O)[C@H](O)Cc1ccc(O)c(O)c1)C2 [D-tanshinol borneol ester, reference compound]
Response given: 1040
